# Test System: T1, His-tagged huCB1-ND (human CB1 in nanodisc) (human)
# T1 construct: CB1 construct of Cell 167(3) (2016) 750-762 expressed in Sf9 cells; POPC:MSP1D1:CB1 480:8:1; also called CB1-nanodisc; huCB1-Nanodisc; not shown: histidine purification tag
# T1 sequence (P21554 99-414): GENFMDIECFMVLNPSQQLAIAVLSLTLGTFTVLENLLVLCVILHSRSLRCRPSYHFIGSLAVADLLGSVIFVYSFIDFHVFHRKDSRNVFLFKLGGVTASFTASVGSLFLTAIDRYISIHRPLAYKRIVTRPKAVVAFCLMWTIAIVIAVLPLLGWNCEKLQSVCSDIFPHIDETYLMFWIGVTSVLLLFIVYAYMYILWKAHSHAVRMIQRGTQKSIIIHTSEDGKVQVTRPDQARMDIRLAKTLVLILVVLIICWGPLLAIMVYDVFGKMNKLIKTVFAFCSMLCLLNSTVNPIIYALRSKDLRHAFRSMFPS
# Test Protocol: flow cytometry, yeast-displayed IgG, binding/display ratio
Measurement Type: 0.200 nM huCB1-Nanodisc binding (relative to 10D10N35Y) (fold)
Reply numerically in fold, unit not repeated.

Observe how each entry below is paired with its result.
Binder: LIBC527912-1 (antibody, V domains shown) VH: QVQLQESGPGLVKPSQTLSLTCTVSGGSIRRGGDYWSWIRQHPGKGLEWIGYIYQTGQTKYNPNFEGRATISVNTYKNQFSLKLSSVTAADTAVYYCARDYDILTGYSYYYYGMDVWGQGTTVTVSS VL: DIQLTQSPSSLSASVGDRVTITCRASQSISSYLNWYQQKPGKAPKLLIYAASSLRSGVPSRFSGSGSGTDFTLTISSLQPEDFATYYCQQYSNYPLTFGGGTRVEIKR
Numeric Value: 5.95

Binder: LIBC527869-1 (antibody, V domains shown, also called LIBC527869-1 + VK1 germline fix(es)) VH: QVQLQESGPGLVKPSQTLSLTCTVSGGNIRRGGDYWAWIRQHPGKGLEWIGHIYHTGKTNYNPSFKGRATISVKTYKNQFSLKLSSVTAADTAVYYCARNYDTLSGNSYYYYGMDVWGQGTTVTVSS VL: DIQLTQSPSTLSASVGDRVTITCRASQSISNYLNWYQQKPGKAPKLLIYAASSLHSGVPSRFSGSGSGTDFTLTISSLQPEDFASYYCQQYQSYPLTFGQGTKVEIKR
Numeric Value: 4.15

Here's the next entry for you.
Record LIBC527984-1 (antibody, V domains shown, also called LIBC527984-1 + VK1 germline fix(es)) VH: QVQLQESGPGLVKPSQTLSLTCTVSGGSIRRGGDYWSWIRQHPGKGLEWIGHIYQTGKTNYNPNFKSRATISVNTYKNQFSLKLSSVTAADTAVYYCARDYDILTGYSYYYYGMDVWGQGTTVTVSS VL: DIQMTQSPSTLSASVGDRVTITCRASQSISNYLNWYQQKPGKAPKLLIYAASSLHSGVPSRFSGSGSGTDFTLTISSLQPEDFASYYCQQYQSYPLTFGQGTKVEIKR , field 0.200 nM huCB1-Nanodisc binding (relative to 10D10N35Y): 5.21
